Listed next: entries and their corresponding cytotoxicity at 70.5 h.
Experiment: Human HepG2 cell viability assay in 384 well format
Format: toxicity, cell-based
Design: dose 125 nL, time 70.5 hour; concentration not given beside the values
Conditions: HepG2 cells, read-out: Inhibition

molecule: O=C(CCNc1ncccn1)N1CCCC(n2cccn2)C1 (centres undefined)
scale-unit: %
cytotoxicity at 70.5 h: -5.02
--
molecule: Cc1ncsc1CN1Cc2cn(C)nc2C(COCC2CC2)C1 (centres undefined)
scale-unit: %
cytotoxicity at 70.5 h: 11.6
--
molecule: Cc1cccc(C(=O)Oc2cc(=O)n3cccc(C)c3n2)c1
scale-unit: %
cytotoxicity at 70.5 h: -5.1
--
molecule: O=C(c1c[nH]c(=O)[nH]c1=O)N1CCCC(c2nccn2CC2CCC2)C1 (centres undefined)
scale-unit: %
cytotoxicity at 70.5 h: -24.3
--
molecule: O=C(NCCCc1cccs1)N1CCCCC1CCO (centres undefined)
scale-unit: %
cytotoxicity at 70.5 h: -1.44
--
molecule: Cc1c[nH]c(CN(C)C(=O)c2cccc(CCC(C)(C)O)c2)n1
scale-unit: %
cytotoxicity at 70.5 h: -5.47
--
molecule: Cc1ccc(OCCN(C)S(=O)(=O)c2cnn(C)c2)cc1
scale-unit: %
cytotoxicity at 70.5 h: -4.35
--
molecule: CN1CCOC(c2cncc(CCC(=O)N(C)C)n2)C1 (centres undefined)
scale-unit: %
cytotoxicity at 70.5 h: -2.29
--
molecule: Cn1nnc2c1C(COCC1CC1)CN(C(=O)CC1=CCCCC1)C2 (centres undefined)
scale-unit: %
cytotoxicity at 70.5 h: -2
--
molecule: O=C(NCCCN1CCCC1=O)c1nc(-c2ccc3[nH]ccc3c2)no1
scale-unit: %
cytotoxicity at 70.5 h: -29.3
--
molecule: O=C1N(c2ccsc2)CCC12CCCN(CC1CC1)C2 (centres undefined)
scale-unit: %
cytotoxicity at 70.5 h: -4.66
--
molecule: Cc1cc(C(=O)N2CCCN(Cc3nccn3C(C)C)CC2)no1
scale-unit: %
cytotoxicity at 70.5 h: -5.9
--
molecule: C1CN(CC2CCOCC2)Cc2c(CN3CCOCC3)nnn2C1
scale-unit: %
cytotoxicity at 70.5 h: 6.54
--
molecule: CC(C(=O)NN1CCOCC1)n1nc(C(F)(F)F)c(Cl)c1C1CC1 (centres undefined)
scale-unit: %
cytotoxicity at 70.5 h: 6.2
